Catalogue of GI50 values
# System: IGROV-1
# protocol: NCI tumour cell line growth inhibition, 48 h
Active and inactive are the calls of the source. Rule as the data show it: active = GI50 up to about 1.1 µM and inactive = higher.

compound | GI50
COC1CC(C)(NC(=O)C(F)(F)F)C2OC(c3ccccc3)OCC2O1 (stereo not given) | > 100 µM (inactive)

For COc1cc(C(N)=O)c(OC)c(OC)c1OC , write its GI50.
> 100 µM (inactive)

For CC(=O)OCC1OC(OC2C(CSC3OC(COC(C)=O)C(OC(C)=O)C(OC(C)=O)C3OC(C)=O)OC(OC(C)=O)C(OC(C)=O)C2OC(C)=O)C(OC(C)=O)C(OC(C)=O)C1OC(C)=O (stereo not given) , write its GI50.
> 100 µM (inactive)

For NNC(=O)CCC(NS(=O)(=O)c1ccc(Cl)cc1)C(=O)NN (stereo not given) , write its GI50.
> 100 µM (inactive)

For c1ccc(-c2cc(-c3cccs3)c(-c3cccs3)s2)cc1 , write its GI50.
> 100 µM (inactive)
